- study.target: human TLR7 (Homo sapiens (Human))
- Sequence (Q9NYK1 27-1049): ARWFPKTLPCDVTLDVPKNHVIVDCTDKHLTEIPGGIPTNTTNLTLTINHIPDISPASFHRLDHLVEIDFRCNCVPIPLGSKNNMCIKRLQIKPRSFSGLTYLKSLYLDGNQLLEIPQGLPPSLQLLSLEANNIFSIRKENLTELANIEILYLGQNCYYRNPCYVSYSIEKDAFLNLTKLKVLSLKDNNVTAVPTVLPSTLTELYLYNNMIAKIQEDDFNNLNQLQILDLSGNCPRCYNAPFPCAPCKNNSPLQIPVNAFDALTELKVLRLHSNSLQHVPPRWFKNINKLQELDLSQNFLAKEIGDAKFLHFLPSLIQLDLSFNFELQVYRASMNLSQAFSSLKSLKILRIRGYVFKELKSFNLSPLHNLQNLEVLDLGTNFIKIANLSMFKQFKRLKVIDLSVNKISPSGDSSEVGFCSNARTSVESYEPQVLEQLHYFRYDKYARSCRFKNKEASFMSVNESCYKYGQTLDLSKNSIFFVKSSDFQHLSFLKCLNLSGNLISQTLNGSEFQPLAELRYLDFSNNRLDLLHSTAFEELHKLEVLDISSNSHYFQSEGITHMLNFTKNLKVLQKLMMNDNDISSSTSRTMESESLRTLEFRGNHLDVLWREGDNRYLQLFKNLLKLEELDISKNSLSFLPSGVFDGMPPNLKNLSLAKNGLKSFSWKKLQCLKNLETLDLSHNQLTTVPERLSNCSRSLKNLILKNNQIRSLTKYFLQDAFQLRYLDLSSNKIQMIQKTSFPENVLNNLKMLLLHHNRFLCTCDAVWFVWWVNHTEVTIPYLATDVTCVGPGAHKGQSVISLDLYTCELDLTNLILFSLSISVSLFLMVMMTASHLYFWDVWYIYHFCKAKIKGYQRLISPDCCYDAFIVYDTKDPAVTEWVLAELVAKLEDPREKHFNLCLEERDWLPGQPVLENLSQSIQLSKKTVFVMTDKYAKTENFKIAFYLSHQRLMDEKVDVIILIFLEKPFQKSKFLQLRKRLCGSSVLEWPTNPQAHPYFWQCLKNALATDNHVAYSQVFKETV
- method.description: TLR7 inhibition reporter assay (HEK-Blue SEAP)
- reported.conditions: HEK-Blue cells overexpressing human TLR7, gardiquimod 7.5 μM stimulation
Binning rule for recorded IC50: low band = under 3 nM, middle band = from 3 nM up to 20 nM, high band = 20 nM and over

1. Cc1c(-c2[nH]c3cnc(N4CC5(C4)CN(C4COC4)C5)c(F)c3c2C(C)C)cn2ncnc2c1C : high band
2. Cc1c(-c2[nH]c3cnc(N4CCN(CC(N)=O)CC4)c(F)c3c2C(C)C)cn2ncnc2c1C : middle band
3. COc1cc(-c2[nH]c3cnc(N4CCN(CC(=O)N(C)C)C[C@H]4C)c(F)c3c2C(C)C)cn2ncnc12 : middle band
4. COc1cc(-c2[nH]c3cnc(C4CCC(NCC5(C)COC5)C4)cc3c2C(C)C)cn2ncnc12 (stereo not drawn) [Example 275] : high band
5. Cc1c(N2CCC(N3CCS(=O)(=O)CC3)CC2)ncc2[nH]c(-c3cc(C)c4ncnn4c3)c(C(C)C)c12 : middle band
6. CCN(C)C1CCC(c2ncc3[nH]c(-c4cc(OC)c5ncnn5c4)c(C(C)C)c3c2F)CC1 (stereo not drawn) [Example 77] : low band
7. Cc1c(-c2[nH]c3cnc(N4CCN(C(=O)CN(C)C)CC4)c(C)c3c2C(C)C)cn2ncnc2c1C : middle band
8. CCCN1CCN(c2ncc3[nH]c(-c4cc(OC)c5ncnn5c4)c(C(C)C)c3c2F)[C@H](C)C1 : low band
9. COc1cc(-c2[nH]c3cnc(C4CCC(N5CC6(COC6)C5)C4)cc3c2C(C)C)cn2ncnc12 (stereo not drawn) [Example 118] : middle band
10. Cc1c(-c2[nH]c3cnc(N4CCN(CCS(C)(=O)=O)CC4)c(C)c3c2C(C)C)cn2ncnc2c1C : high band
11. Cc1c(-c2[nH]c3cnc(N4CCN(C5CCC5)C[C@H]4C)c(F)c3c2C(C)C)cn2ncnc2c1C : low band
12. Cc1c(-c2[nH]c3cnc(N4CCC(NC(C)C)CC4)c(F)c3c2C(C)C)cn2ncnc2c1C : low band
13. CCN(C)C1CCC(c2ncc3[nH]c(-c4cc(C)c5ncnn5c4)c(C(C)C)c3c2F)CC1 (stereo not drawn) [Example 199] : low band
14. Cc1c(-c2[nH]c3cnc(C4CCC(N5CCC5)CC4)c(F)c3c2C(C)C)cn2ncnc2c1C (stereo not drawn) [Example 165] : low band
15. Cc1c(-c2[nH]c3cnc(C4CCC(NC5COC5)CC4)c(C)c3c2C(C)C)cn2ncnc2c1C (stereo not drawn) [Example 121] : low band
